Molecular target: Coagulation Factor Xa, from human plasma (human, UniProt P00742 41-488, limits assumed)
Sequence (P00742 41-488 limits assumed): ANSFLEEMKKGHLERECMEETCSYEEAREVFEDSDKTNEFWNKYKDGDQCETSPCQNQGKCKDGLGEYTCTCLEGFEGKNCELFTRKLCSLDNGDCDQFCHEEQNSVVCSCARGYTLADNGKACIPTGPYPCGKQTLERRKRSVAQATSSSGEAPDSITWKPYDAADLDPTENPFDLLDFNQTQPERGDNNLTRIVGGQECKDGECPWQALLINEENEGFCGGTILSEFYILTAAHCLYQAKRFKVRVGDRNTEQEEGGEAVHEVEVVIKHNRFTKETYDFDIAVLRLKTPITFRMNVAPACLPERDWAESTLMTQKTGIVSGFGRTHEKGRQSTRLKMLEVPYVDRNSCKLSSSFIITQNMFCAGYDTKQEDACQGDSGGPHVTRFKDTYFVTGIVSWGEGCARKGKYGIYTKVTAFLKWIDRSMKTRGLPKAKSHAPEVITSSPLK
Experiment: cell-based or functional assay
Bridges are numbered along the chain shown (N, C = ends). [ ]: non-standard residue; d: D form. AlloThr = allo threonine
Recorded % inhibition at 100 µM, one value per entry.
test.readout: % inhibition at 100 µM (%)

>  <binder>
ICTKSDPPXCR (HELM PEPTIDE1{I.C.T.K.S.D.P.P.[Nle].C.R.[dP].P}$PEPTIDE1,PEPTIDE1,2:R3-10:R3|PEPTIDE1,PEPTIDE1,1:R1-13:R2$$$V2.0; SMILES CCCC[C@@H]1NC(=O)[C@@H]2CCCN2C(=O)[C@@H]2CCCN2C(=O)[C@H](CC(=O)O)NC(=O)[C@H](CO)NC(=O)[C@H](CCCCN)NC(=O)[C@H]([C@@H](C)O)NC(=O)[C@@H]2CSSC[C@H](NC1=O)C(=O)N[C@@H](CCCNC(=N)N)C(=O)N1CCC[C@@H]1C(=O)N1CCC[C@H]1C(=O)N[C@@H]([C@@H](C)CC)C(=O)N2) [Example 57]

>  <unit.label>
%

>  <measured>
32

$$$$
>  <binder>
cyclo(FCTK[AlloThr]DPPICS[dP]P) (disulfide 2-10) [Example 24]

>  <unit.label>
%

>  <measured>
30

$$$$
>  <binder>
cyclo(ICTKSDPAICR[dP]P) (disulfide 2-10) [Example 14]

>  <unit.label>
%

>  <measured>
6

$$$$
>  <binder>
XCTASXPPQCY (HELM PEPTIDE1{[Nle].C.T.A.S.[Cha].P.P.Q.C.Y.[dP].P}$PEPTIDE1,PEPTIDE1,2:R3-10:R3|PEPTIDE1,PEPTIDE1,1:R1-13:R2$$$V2.0; SMILES CCCC[C@@H]1NC(=O)[C@@H]2CCCN2C(=O)[C@H]2CCCN2C(=O)[C@H](Cc2ccc(O)cc2)NC(=O)[C@@H]2CSSC[C@H](NC1=O)C(=O)N[C@@H]([C@@H](C)O)C(=O)N[C@@H](C)C(=O)N[C@@H](CO)C(=O)N[C@@H](CC1CCCCC1)C(=O)N1CCC[C@H]1C(=O)N1CCC[C@H]1C(=O)N[C@@H](CCC(N)=O)C(=O)N2) [Example 82]

>  <unit.label>
%

>  <measured>
15.3

$$$$
